study.system: PCSK9 (Homo sapiens)
Sequence (Q8NBP7 153-692): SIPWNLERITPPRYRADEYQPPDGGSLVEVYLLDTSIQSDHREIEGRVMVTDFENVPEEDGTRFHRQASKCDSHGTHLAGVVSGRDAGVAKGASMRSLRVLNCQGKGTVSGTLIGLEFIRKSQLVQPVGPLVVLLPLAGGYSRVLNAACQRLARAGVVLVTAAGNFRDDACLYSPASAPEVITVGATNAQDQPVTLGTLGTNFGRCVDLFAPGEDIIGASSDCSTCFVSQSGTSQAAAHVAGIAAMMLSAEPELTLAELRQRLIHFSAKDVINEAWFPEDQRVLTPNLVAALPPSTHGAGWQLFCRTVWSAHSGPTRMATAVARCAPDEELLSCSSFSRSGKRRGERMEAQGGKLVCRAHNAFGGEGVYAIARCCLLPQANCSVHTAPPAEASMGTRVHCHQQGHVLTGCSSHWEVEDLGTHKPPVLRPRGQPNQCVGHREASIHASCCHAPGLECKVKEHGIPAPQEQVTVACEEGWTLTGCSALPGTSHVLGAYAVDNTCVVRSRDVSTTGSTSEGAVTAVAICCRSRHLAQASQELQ
Sequence (Q8NBP7 31-152 partner limits assumed): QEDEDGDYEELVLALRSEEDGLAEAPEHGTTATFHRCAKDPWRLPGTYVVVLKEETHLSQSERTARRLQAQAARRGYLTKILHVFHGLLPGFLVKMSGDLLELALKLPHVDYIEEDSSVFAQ
procedure.summary: PCSK9/EGF(A) TR-FRET binding assay
condition.parameters: TR-FRET; Table 8D, disulfide-cyclized extension peptides; read-out: PCSK9/EGF(A) IC50
Bridge positions count the residues as written; N and C are the ends. Square brackets hold non-standard residues; d marks the D form. Peptide text beside a SMILES is read from it.
endpoint.label: IC50

Examples from the recorded data:
molecule	study.system	endpoint.label	result
CC[C@H](C)[C@@H]1NC(=O)[C@H](CCCNC(=N)N)NC(=O)[C@H](CCC(N)=O)NC(=O)[C@H](CC(C)C)NC(=O)[C@H](CC(N)=O)NC(=O)[C@H](Cc2c[nH]c3ccccc23)NC(=O)[C@@H]2CCCN2C(=O)[C@H](CC(C)C)NC(=O)[C@H](CCCNC(=N)N)NC(=O)[C@H](NC(C)=O)CSSC[C@@H](C(N)=O)NC(=O)[C@@H]2CCCN2C(=O)[C@H](CC(C)C)NC(=O)CNC1=O [Compound 110] (Ac-[dC]RLPWNLQRIGLPC-NH2; disulfide 1-14)	PCSK9 (Homo sapiens)	IC50	> 50 µM
CC[C@H](C)[C@@H]1NC(=O)[C@H](CCCNC(=N)N)NC(=O)[C@H](CCC(N)=O)NC(=O)[C@H](CC(C)C)NC(=O)[C@H](CC(N)=O)NC(=O)[C@H](Cc2c[nH]c3ccccc23)NC(=O)[C@H](C)NC(=O)[C@H](CC(C)C)NC(=O)[C@H](CCCNC(=N)N)NC(=O)[C@@H](NC(C)=O)CSSC[C@@H](C(N)=O)NC(=O)[C@@H]2CCCN2C(=O)[C@H](CC(C)C)NC(=O)CNC1=O [Compound 77] (Ac-CRLAWNLQRIGLPC-NH2; disulfide 1-14)	PCSK9 (Homo sapiens)	IC50	> 50 µM

Proceeding to the next molecule to report its IC50.
Summary for this molecule, CC[C@H](C)[C@@H]1NC(=O)[C@H](CCCNC(=N)N)NC(=O)[C@H](CCCCN)NC(=O)[C@H](CC(C)C)NC(=O)[C@H](CC(N)=O)NC(=O)[C@H](Cc2c[nH]c3ccccc23)NC(=O)[C@H](CC(C)C)NC(=O)[C@@H](NC(=O)[C@H](CC(=O)O)NC(C)=O)CSSC[C@@H](C(=O)N[C@@H](CCC(=O)O)C(=O)N[C@@H](Cc2ccc(O)cc2)C(N)=O)NC(=O)[C@H](CCC(N)=O)NC(=O)[C@H](CO)NC(=O)CNC1=O [Compound 64] (Ac-DCLWNLKRIGSQCEY-NH2; disulfide 2-13) : IC50 is > 50 µM
